METHOD DESCRIPTION: chemical genetic growth profiling, strain panel (AID 1159580);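 note: tested at 20 µM; growth read once vehicle control cultures reached saturation at 30 °C; 1 = growth at the plate median or of vehicle wells; lower values mean less growth of the strain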
CONDITION PARAMETERS: S. cerevisiae deletion strains, growth OD, locus YDR101C, strain arx1, active compounds read low
Out of some 5,500 compounds screened, about 2,000 (36%) were called active. About 18% were inconclusive and are not listed. This is one part of the list. Where a SMILES comes first, the peptide text is derived from it. Bridges are numbered along the chain shown (N, C = ends). Side-chain parts run from the residue outwards. [ ]: non-standard residue; d: D form. The star is where a group is joined. Octanoyl(6-Me) = CCC(C)CCCCC(=O)*; X1 = CCC(C)C(N)C1=NC(C(=O)*)CS1; Orn = NCCC[CH](N)C(=O)O; Dab = NCC[CH](N)C(=O)O
MEASURED PARAMETER: normalized growth
Give a plain numeric answer without units written out.

CCC(C)C(N)C1=NC(C(=O)NC(CC(C)C)C(=O)NC(CCC(=O)O)C(=O)NC(C(=O)NCCCCC2NC(=O)C(CC(N)=O)NC(=O)C(CC(=O)O)NC(=O)C(Cc3cnc[nH]3)NC(=O)C(Cc3ccccc3)NC(=O)C(C(C)CC)NC(=O)C(CCCN)NC2=O)C(C)CC)CS1 (stereo not drawn) (cyclo(DNK([Ile-Glu-Leu-X1])[Orn]IFH); configuration not given here)    1.02
COc1cc(NS(=O)(=O)c2ccc(N)cc2)ncn1    0.972

Lab note: measured normalized growth of CCC(C)CCCCC(=O)NC(CCN)C(=O)NC(C(=O)NC(CCN)C(=O)NC1CCNC(=O)C(C(C)O)NC(=O)C(CCN)NC(=O)C(CCN)NC(=O)C(CC(C)C)NC(=O)C(Cc2ccccc2)NC(=O)C(CCN)NC1=O)C(C)O (stereo not drawn) ({Octanoyl(6-Me)}-[Dab]T[Dab][Dab][Dab]FL[Dab][Dab]T; lactam 4-C; configuration not given here) was 1.01

---

METHOD DESCRIPTION: chemical genetic growth profiling, strain panel (AID 1159580);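 note: tested at 20 µM; growth read once vehicle control cultures reached saturation at 30 °C; 1 = growth at the plate median or of vehicle wells; lower values mean less growth of the strain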
CONDITION PARAMETERS: S. cerevisiae deletion strains, growth OD, locus YKL160W, strain elf1, active compounds read low
Hit rate of the full screen: of about 5,500 compounds, about 2,000 (36%) were called active. Inconclusive results (about 18%) are left out. This is one part of the list.
Entries annotated with measured normalized growth
Give a plain numeric answer without units written out.

Example entries begin here.
COC1(C)CCC2OC2(C)CCC2C1CC2(C)C (configuration not stated)    1
O=c1oc2c(O)c(O)cc3c(=O)oc4c(O)c(O)cc1c4c23    0.82
COc1c2c(cc3c1OCO3)C13C=C[C@H](OC)CC1N(C2)CC3O (some centres not stated)    0.95
CC(=O)NO    0.961

Lab note: measured normalized growth of COc1cc(O)cc(OC)c1OC was 1

Lab note: measured normalized growth of O=C(NC1CCCCC1)NC1CCCCC1 was 0.977

Lab note: measured normalized growth of Cc1cc(=O)n(-c2ccccc2)n1C was 0.936

---

METHOD DESCRIPTION: chemical genetic growth profiling, strain panel (AID 1159580);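 note: tested at 20 µM; growth read once vehicle control cultures reached saturation at 30 °C; 1 = growth at the plate median or of vehicle wells; lower values mean less growth of the strain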
CONDITION PARAMETERS: S. cerevisiae deletion strains, growth OD, locus YKR001C, strain vps1
The campaign covered roughly 5,500 compounds. About 2,000 (36%) were called active. Inconclusive results (about 18%) are left out. No stated cut-off is given here; in the data, active means normalized growth mostly below about 0.91 (no sharp cut-off); inconclusive means no clear call, values can overlap the other calls; inactive means mostly above about 0.92. Some of the results follow. Where a SMILES comes first, the peptide text is derived from it. [ ]: non-standard residue; d: D form. Orn = NCCC[CH](N)C(=O)O
Please answer using one outcome listed in 1 = active, -1 = inactive

// known answers, use as guide
Cc1cc(C(C)(C)C)c(O)c(C)c1CC1=NCCN1    -1
Cc1cc(C(C)(C)C)cc(C)c1CC1=NCCN1    -1

Please state the recorded outcome for this compound: O=C(O)c1cc(=O)c2c(Cl)cc(Cl)cc2[nH]1
-1

Please state the recorded outcome for this compound: CCOc1ccc(C(=O)c2cc(O)c(OC)c(OC)c2O)cc1
-1

Please state the recorded outcome for this compound: CC(C)CC1NC(=O)C(CCCN)NC(=O)C(C(C)C)NC(=O)C2CCCN2C(=O)C(Cc2ccccc2)NC(=O)C(CC(C)C)NC(=O)C(CCCN)NC(=O)C(C(C)C)NC(=O)C2CCCN2C(=O)C(Cc2ccccc2)NC1=O (stereo not given) (cyclo(FPV[Orn]LFPV[Orn]L); configuration not given here)
1

Please state the recorded outcome for this compound: CC(=O)[C@@]1(O)CCC2C3CCC4=CC(=O)CC[C@]4(C)C3CC[C@@]21C (stereo not given in full)
-1

Please state the recorded outcome for this compound: COc1ccc(C(=O)c2ccccc2)c(O)c1O
1

Please state the recorded outcome for this compound: COc1cc2c(cc1O)CCNC2C (stereo not given)
-1

Please state the recorded outcome for this compound: COc1cc(NS(=O)(=O)c2ccc(N)cc2)ncn1
-1

Please state the recorded outcome for this compound: Cc1cc(=O)n(-c2ccccc2)n1C
-1
